system.tested: T1, human GPRC5D protein (UniProt Q9NZD1 1-345)
T1 chain: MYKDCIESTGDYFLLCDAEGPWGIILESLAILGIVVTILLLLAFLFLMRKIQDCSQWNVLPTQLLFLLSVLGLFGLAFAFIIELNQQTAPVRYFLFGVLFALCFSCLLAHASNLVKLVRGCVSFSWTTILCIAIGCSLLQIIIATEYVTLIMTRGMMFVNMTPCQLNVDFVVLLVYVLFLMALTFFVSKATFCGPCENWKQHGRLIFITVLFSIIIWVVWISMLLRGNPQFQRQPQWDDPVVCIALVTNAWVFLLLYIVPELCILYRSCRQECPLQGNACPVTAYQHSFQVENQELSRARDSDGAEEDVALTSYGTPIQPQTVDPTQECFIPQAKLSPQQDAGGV
test.description: FACS, cells with high expression of hGPRC5D
pEC50: −log10 of the molar value.
quantity.kind: pEC50

INSERT INTO assay_data (binder, quantity_kind, data_value) VALUES
  ('Chi-89 (antibody, V domains shown) VH: EVQLVESGGDLVKPGGSLKLSCAASGFTFSSYGMSWVRQTPDKRLEWVATISSGGSYTYYPDSVKGRFTFSRDNAKNTLYLQMSSLKSEDTAMYYCVRQALRYHMDSWGQGTSVTVSS VL: DIVMTQSQKFMSTSVGDRVSVTCKASQNVGTNVAWYQQKPGQSPKALIYSASYRYSGVPDRFTGSGSGTDFTLTISNVQSEDLADFFCQQYYSYPWTFGGGTKLEIKR', 'pEC50', 9.15),
  ('Chi-169 (antibody, V domains shown) VH: EVKLVESGGGLVKPGASLKLSCAASGFTFSNYGMSWVRQTSDKRLEWVASISSGGGRIYYPDNVKGRFTISRENAKNTLYLQMSSLKSEDTALYYCTRHAMDNWGQGTSVIVSS VL: QIVLTQSPAIMSASPGEKVTMTCSASSSVSNMYWYQQKSGTSPKRWIYDTSKLASGVPARFSGSGSGTSYSLTISSMEAEDASTYYCQQWSSNPLTFGAGTTLELKR', 'pEC50', 9.18),
  ('Chi-105 (antibody, V domains shown) VH: EVQLQQSGPELVKPGASVKMSCKASGYTFTDYYMNWVKQSHGKSLEWIGYIYPNNGGTGYNQRFKGKATLTADKSSSTAYMELRSLTSEDSAVYYCARWGGTRLGYYAMDYWGQGTSVTVSS VL: DIVMTQSQKFMSTSVGDRVSVTCKASQNVGTNVVWYQQKPGQSPKLLIYWASTRHTGVPDRFTGSGSGTDFTLTISNVQSEDLADYFCQQYSRYPYTFGGGTKLEIKR', 'pEC50', 8.84),
  ('Chi-128 (antibody, V domains shown) VH: DVQLVESGGGLVQPGGSRKVSCAASGFTFSSFGMHWVRQAPEKGLEWVAYISRGSSTIYYADTVKGRFTISRDNPKNTLFLQMTSLRSEDTAMYYCARSGYGSSSYYFDYWGQGTTLTVSS VL: ENVLTQSPAIMSASPREKVTMTCRASSSIRSSYLHWYQQKSGASPKLWIYSTSNLASGVPARFSGSGSGTSYSLTISSVEAEDAATYYCQQFSGYPLTFGGGTKLEIKR', 'pEC50', 9.12);
